# study-target: Serine/threonine-protein kinase Nek7 (Homo sapiens);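 note: reported values are mean inhibition of NEK7 from the GSK PKIS kinase screening panel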
# study-conditions: at 1 µM
Recorded measurements of inhibition, one per entry
Use % as the unit, but write only the number.

Would you please look over these solved cases?
[[record]]
molecule = "COc1ccc(COc2ccc(Cc3cnc(N)nc3N)cc2OC)cc1"
study_target = "Serine/threonine-protein kinase Nek7 (Homo sapiens)"
result = 1.75

[[record]]
molecule = "O=C1NC(=O)C(c2cccc(Cl)c2)=C1Nc1ccc(O)c(Cl)c1"
study_target = "Serine/threonine-protein kinase Nek7 (Homo sapiens)"
result = 1.51

[[record]]
molecule = "CCn1c(-c2nonc2N)nc2cncc(C(=O)N3CC[C@H](N)C3)c21"
study_target = "Serine/threonine-protein kinase Nek7 (Homo sapiens)"
result = 7.48

[[record]]
molecule = "COc1cc2c(cc1Nc1nc(N3CCc4ccccc43)c3cc[nH]c3n1)N(C(=O)CN(C)C)CC2"
study_target = "Serine/threonine-protein kinase Nek7 (Homo sapiens)"
result = 3.29

[[record]]
molecule = "CC(C)=Cc1cccc2c1/C(=N/Nc1ccc(S(N)(=O)=O)cc1)C(=O)N2"
study_target = "Serine/threonine-protein kinase Nek7 (Homo sapiens)"
result = -0.48


Next item in the queue.
Q. Find the recorded inhibition belonging to COc1cc2ncn(-c3cc(OCc4ccccc4Cl)c(C(N)=O)s3)c2cc1OC and report it.
A. 1.21

---

# study-target: Platelet-derived growth factor receptor alpha (Homo sapiens) (UniProt P16234)
# Sequence (P16234 whole entry): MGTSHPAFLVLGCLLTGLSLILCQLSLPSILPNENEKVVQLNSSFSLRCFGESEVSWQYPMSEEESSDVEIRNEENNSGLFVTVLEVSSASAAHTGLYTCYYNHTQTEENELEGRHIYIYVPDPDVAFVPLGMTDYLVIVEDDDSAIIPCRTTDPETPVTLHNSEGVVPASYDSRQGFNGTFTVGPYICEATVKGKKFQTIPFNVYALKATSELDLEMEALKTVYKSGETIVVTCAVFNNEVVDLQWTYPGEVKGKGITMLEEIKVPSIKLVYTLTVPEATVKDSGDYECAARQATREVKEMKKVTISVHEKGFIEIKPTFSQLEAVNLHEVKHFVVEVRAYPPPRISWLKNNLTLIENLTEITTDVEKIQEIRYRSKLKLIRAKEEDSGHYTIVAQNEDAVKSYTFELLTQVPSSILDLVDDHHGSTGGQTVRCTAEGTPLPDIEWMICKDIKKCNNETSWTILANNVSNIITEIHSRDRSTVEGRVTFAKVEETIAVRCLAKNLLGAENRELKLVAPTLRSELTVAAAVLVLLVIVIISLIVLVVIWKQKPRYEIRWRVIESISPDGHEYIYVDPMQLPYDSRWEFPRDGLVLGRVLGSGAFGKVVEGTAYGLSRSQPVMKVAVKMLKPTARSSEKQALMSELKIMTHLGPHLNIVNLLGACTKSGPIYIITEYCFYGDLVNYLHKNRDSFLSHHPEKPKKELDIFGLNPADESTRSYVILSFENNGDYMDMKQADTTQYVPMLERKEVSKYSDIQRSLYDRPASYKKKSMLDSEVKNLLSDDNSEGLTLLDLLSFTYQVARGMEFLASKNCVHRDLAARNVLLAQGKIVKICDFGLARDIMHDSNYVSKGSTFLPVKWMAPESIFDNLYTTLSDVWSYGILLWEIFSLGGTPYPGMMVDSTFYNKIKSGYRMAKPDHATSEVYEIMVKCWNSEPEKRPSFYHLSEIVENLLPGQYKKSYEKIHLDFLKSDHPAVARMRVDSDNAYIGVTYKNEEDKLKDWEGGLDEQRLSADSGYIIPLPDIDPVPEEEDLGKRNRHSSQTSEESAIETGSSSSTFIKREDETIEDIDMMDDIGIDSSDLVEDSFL
# study-conditions: at 0.1 µM
# Description: GSK_PKIS: PDGFRA mean inhibition at 0.1 uM [Nanosyn]
measurement-kind: inhibition (%)
Use % as the unit, but write only the number.

Would you please look over these solved cases?
[[record]]
compound = "Cc1ccc(C(=O)NC2CCCCC2)cc1-c1ccc(C(=O)NCC2CC2)cc1"
value_unit = "%"
result = 12.3

[[record]]
compound = "COC(=O)Nc1nc2cc(Oc3ccc(NC(=O)Nc4cccc(C(=O)O)c4)cc3)ccc2[nH]1"
value_unit = "%"
result = 10.8

[[record]]
compound = "O=C1NC(=O)C(c2ccc(Cl)cc2)=C1Nc1ccc(Cl)c(C(=O)O)c1"
value_unit = "%"
result = 1.93

[[record]]
compound = "O=C1NC(=O)C(N2CCc3ccccc32)=C1c1ccc(Cl)cc1"
value_unit = "%"
result = 13.4

[[record]]
compound = "CCCN1CCC(Oc2cc(Nc3nc(Nc4cccc(F)c4C(N)=O)c4cc[nH]c4n3)c(OC)cc2Cl)CC1"
value_unit = "%"
result = 3.93


Q. Find the recorded inhibition belonging to CN(C)c1cc2c(Nc3ccc4nc(Cc5ccccc5)[nH]c4c3)ncnc2cn1 and report it.
A. 9.58

Q. Find the recorded inhibition belonging to NC(=O)c1cccc(Nc2nccc(Nc3cccc4[nH]ncc34)n2)c1 and report it.
A. 23.7

Q. Find the recorded inhibition belonging to NCc1ccc(-c2nc(-c3ccc(Cl)c(O)c3)c(-c3ccncc3)[nH]2)cc1 and report it.
A. 6.86

Q. Find the recorded inhibition belonging to Nc1ncnc2occ(-c3ccc(NC(=O)Nc4cccc(C(F)(F)F)c4)cc3)c12 and report it.
A. 88.2

---

# study-target: Vascular endothelial growth factor receptor 2 (Homo sapiens)
# study-conditions: at 0.1 µM
# Description: GSK_PKIS: KDR mean inhibition at 0.1 uM [Nanosyn]
Param threshold (4%) applies to inhibition; output label 1 when value >= threshold, label 0 when value < threshold.

[[record]]
molecule = "COc1cc2ncn(-c3cc(OCc4ccccc4C(F)(F)F)c(C(N)=O)s3)c2cc1OC"
study_target = "Vascular endothelial growth factor receptor 2 (Homo sapiens)"
class = "label 1"

[[record]]
molecule = "Cc1cccc(-c2n[nH]cc2-c2ccc3ncccc3n2)n1"
study_target = "Vascular endothelial growth factor receptor 2 (Homo sapiens)"
class = "label 1"

[[record]]
molecule = "COc1cc(C)c(NC(=O)CN(C)C)cc1Nc1nc(Nc2cccc(F)c2C(N)=O)c2cc[nH]c2n1"
study_target = "Vascular endothelial growth factor receptor 2 (Homo sapiens)"
class = "label 0"

[[record]]
molecule = "CC1=C(C(=O)Nc2ccc3[nH]ncc3c2)C(c2ccc(Cl)c(Cl)c2)CC(=O)N1 (stereo not given)"
study_target = "Vascular endothelial growth factor receptor 2 (Homo sapiens)"
class = "label 0"


Attention now shifts to the item below.
Q. Reported inhibition reaches at least 4% for CC1=C(C(=O)Nc2ccc3[nH]ncc3c2)C(c2ccc(F)cc2)NC(=O)N1 (stereo not given) ?
A. label 1
